Test: Steady-state PK in KPC mice fed metarrestin-infused chow
Format: in vivo
Details: KPC, mouse, pancreatic tumor, oral, 10 mg/kg/day, tumor/plasma; day 10, chow, target dose 10 mg/kg/day; read-out: AUC0-24hr Ratio (Tissue/Plasma)
Value kind: Kp

Entry N=c1c2c(-c3ccccc3)c(-c3ccccc3)n(Cc3ccccc3)c2ncn1[C@H]1CC[C@H](O)CC1 [metarrestin] — recorded Kp = > 20

###

Assay: Steady-state PK in KPC mice fed metarrestin-infused chow
Format: in vivo
Conditions: KPC, mouse, plasma, oral; 24 hr; day 10, 10 mg/kg/day (70 ppm) chow; read-out: Plasma concentration
Value kind: concentration at 24 h (nM)
Give bare numbers, in nM.

Entry `N=c1c2c(-c3ccccc3)c(-c3ccccc3)n(Cc3ccccc3)c2ncn1[C@H]1CC[C@H](O)CC1` — recorded concentration at 24 h = 270

###

Experiment: Steady-state PK in KPC mice fed metarrestin-infused chow
Type: in vivo
Settings: KPC, mouse, tumor, oral; 12 hr; day 10, 10 mg/kg/day (70 ppm) chow; read-out: Tumor concentration
Value kind: concentration at 12 h (µM)
Give bare numbers, in µM.

Entry `N=c1c2c(-c3ccccc3)c(-c3ccccc3)n(Cc3ccccc3)c2ncn1[C@H]1CC[C@H](O)CC1` — recorded concentration at 12 h = 10.7

###

Test: Pharmacokinetics in tumor-bearing KPC mice after 25 mg/kg single or multiple dose oral gavage
Type: in vivo
Details: KPC, mouse, liver, po, 25 mg/kg/day, liver; day 14, multiple PO doses 25 mg/kg/day; read-out: AUC0–24h
Experimental: Animals with three or more tumors per organ, pancreatic cysts or cystic tumors, signs of intestinal, pancreatic or gall bladder duct occlusions, or otherwise moribund/showing signs of dilapidation were excluded. […] An ultra-performance liquid chromatography–tandem mass spectrometry (UPLC–MS/MS) method was developed to determine metarrestin concentrations in plasma and tissue samples. […] Data were analyzed using MassLynx V4.1. […]
Value kind: AUC(0-t) (µg·h/mL)
Give bare numbers, in µg·h/mL.

Entry N=c1c2c(-c3ccccc3)c(-c3ccccc3)n(Cc3ccccc3)c2ncn1[C@H]1CC[C@H](O)CC1 [metarrestin] — recorded AUC(0-t) = 987

###

Test: Pharmacokinetics in tumor-bearing KPC mice after 25 mg/kg single or multiple dose oral gavage
Format: in vivo
Details: KPC, mouse; spleen; single PO dose 25 mg/kg
Value kind: half-life (h)
Answers are plain numbers, in h.

Entry `N=c1c2c(-c3ccccc3)c(-c3ccccc3)n(Cc3ccccc3)c2ncn1[C@H]1CC[C@H](O)CC1` — recorded half-life = 9.7

###

Assay: Pharmacokinetics in tumor-bearing KPC mice after 25 mg/kg single or multiple dose oral gavage
Type: in vivo
Conditions: KPC, mouse; liver; single PO dose 25 mg/kg
Value kind: AUC(0-inf) (µg·h/mL)
Answers are plain numbers, in µg·h/mL.

Entry `N=c1c2c(-c3ccccc3)c(-c3ccccc3)n(Cc3ccccc3)c2ncn1[C@H]1CC[C@H](O)CC1` — recorded AUC(0-inf) = 653

###

Assay: Pharmacokinetics in C57BL/6 mice after single IV and PO administration
Assay type: in vivo
Details: C57BL/6, mouse; liver; 10 mg/kg PO single dose; read-out: AUC0–24h
Value kind: AUC(0-t) (µg·h/mL)
One number for each entry, in µg·h/mL.

Entry N=c1c2c(-c3ccccc3)c(-c3ccccc3)n(Cc3ccccc3)c2ncn1[C@H]1CC[C@H](O)CC1 [metarrestin] — recorded AUC(0-t) = 276
